# Assayed target: BCAT2 (Homo sapiens, UniProt O15382)
# Sequence (O15382 28-392): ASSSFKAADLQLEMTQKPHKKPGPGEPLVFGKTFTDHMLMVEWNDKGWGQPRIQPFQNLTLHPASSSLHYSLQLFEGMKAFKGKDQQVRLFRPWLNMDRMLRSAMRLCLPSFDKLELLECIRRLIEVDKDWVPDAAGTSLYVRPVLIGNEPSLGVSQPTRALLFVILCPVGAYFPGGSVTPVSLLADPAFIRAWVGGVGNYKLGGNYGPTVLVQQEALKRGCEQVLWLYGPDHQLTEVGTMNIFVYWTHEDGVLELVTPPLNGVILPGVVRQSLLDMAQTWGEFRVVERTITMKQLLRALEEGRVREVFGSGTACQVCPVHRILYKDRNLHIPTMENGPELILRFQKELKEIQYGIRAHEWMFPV
# Method: BCAT2 in vitro enzyme inhibition assay (hBCAT2, glutamate dehydrogenase/diaphorase/resazurin coupled fluorescence read)
# Assay type: biochemical
# Assay context: hBCAT2, 1 h preincubation at 25° C., one hour reaction; average where tested multiple times
Reported endpoint: IC50

Mol smiles: CC(C)COc1ccc(Cl)cc1C(=O)N[C@H]1CCC[C@@H](n2c(-c3ncccc3F)nc3cnc(-c4nc[nH]n4)cc32)C1
Assayed target: BCAT2 (Homo sapiens, UniProt O15382)
IC50: < 100 nM

Mol smiles: O=C(N[C@H]1CCC[C@@H](n2c(-c3ccccc3F)nc3cnc(-c4nc[nH]n4)cc32)[C@@H]1O)c1cc(Cl)ccn1
Assayed target: BCAT2 (Homo sapiens, UniProt O15382)
IC50: < 100 nM

Mol smiles: COc1ccc(Cl)cc1C(=O)N[C@H]1C[C@@H](n2c(-c3ccccc3F)nc3cnc(-c4nc[nH]n4)cc32)CN(C)C1
Assayed target: BCAT2 (Homo sapiens, UniProt O15382)
IC50: 500 to 1000 nM

Mol smiles: CN1C[C@@H](NC(=O)c2cc(F)ccc2F)C[C@@H](n2c(-c3ccccc3OCCO)nc3cnc(-c4ncco4)cc32)C1
Assayed target: BCAT2 (Homo sapiens, UniProt O15382)
IC50: > 1000 nM

Mol smiles: CN1C[C@H](NC(=O)c2cc(F)ccc2F)C[C@H](n2c(-c3ccccc3OCCO)nc3cnc(-c4ncco4)cc32)C1
Assayed target: BCAT2 (Homo sapiens, UniProt O15382)
IC50: < 100 nM

The record that follows has no IC50 shown yet.
Identify measured IC50 associated with CN1C[C@H](NC(=O)c2cc(Cl)ccn2)C[C@H](n2c(-c3ccccc3OCCO)nc3ccc(-c4ncccn4)cc32)C1
< 100 nM

* * *

# Assayed target: BCAT2 (Homo sapiens, UniProt O15382)
# Sequence (O15382 28-392): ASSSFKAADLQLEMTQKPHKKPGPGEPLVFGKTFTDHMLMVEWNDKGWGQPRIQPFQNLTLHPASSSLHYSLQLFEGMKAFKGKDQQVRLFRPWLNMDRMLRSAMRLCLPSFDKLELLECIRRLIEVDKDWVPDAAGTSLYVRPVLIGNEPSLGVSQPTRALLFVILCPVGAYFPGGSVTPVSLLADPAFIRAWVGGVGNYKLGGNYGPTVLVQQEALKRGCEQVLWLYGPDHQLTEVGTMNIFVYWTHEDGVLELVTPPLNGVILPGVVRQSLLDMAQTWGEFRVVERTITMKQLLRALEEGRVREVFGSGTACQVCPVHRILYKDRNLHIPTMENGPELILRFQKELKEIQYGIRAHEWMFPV
# Method: BCAT2 cell inhibition using engineered A549 cells (MUT KO, BCAT1 KO; 13C6-KMV formation by LC-MS/MS)
# Assay type: cell-based
# Set-up: expressed endogenous BCAT2; endogenous in cells; host or cells: A549 cells, MUT knockout and BCAT1 knockout
pIC50: −log10 of the molar value.
# pIC50 listing for each entry below

Mol smiles: N#Cc1ccc(F)cc1C(=O)N[C@H]1CCC[C@@H](n2c(-c3ccccc3F)nc3cnc(-c4nc[nH]n4)cc32)C1
Assayed target: BCAT2 (Homo sapiens, UniProt O15382)
Reported endpoint: pIC50
Result: > 7.00

Mol smiles: COc1ccc(Cl)cc1C(=O)N[C@@H]1C[C@H](n2c(-c3ccccc3F)nc3cnc(-c4nc[nH]n4)cc32)CN(C)C1
Assayed target: BCAT2 (Homo sapiens, UniProt O15382)
Reported endpoint: pIC50
Result: 6.30 to 7.00

Mol smiles: O=C1c2c(ccc(F)c2F)CN1[C@H]1CCC[C@@H](n2c(-c3ccccc3F)nc3cnc(-c4nc[nH]n4)cc32)C1
Assayed target: BCAT2 (Homo sapiens, UniProt O15382)
Reported endpoint: pIC50
Result: > 7.00

Mol smiles: O=C1c2cc(F)ccc2CN1[C@H]1CCC[C@@H](n2c(-c3ccccc3F)nc3cnc(-c4ncccc4F)cc32)[C@@H]1O
Assayed target: BCAT2 (Homo sapiens, UniProt O15382)
Reported endpoint: pIC50
Result: > 7.00

Mol smiles: O=C(N[C@H]1CCC[C@@H](n2c(-c3ccccc3F)nc3cnc(-c4nc[nH]n4)cc32)C1)c1cc(Cl)ccc1F
Assayed target: BCAT2 (Homo sapiens, UniProt O15382)
Reported endpoint: pIC50
Result: > 7.00

Mol smiles: O=C(N[C@H]1CCC[C@@H](n2c(-c3ncccc3F)nc3cnc(-c4nc[nH]n4)cc32)C1)c1cc(F)ccn1
Assayed target: BCAT2 (Homo sapiens, UniProt O15382)
Reported endpoint: pIC50
Result: 6.30 to 7.00

Next, consider the following molecule.
Answer with the recorded pIC50 for the molecule listed here: O=C1c2cc(F)ccc2CN1[C@H]1CCC[C@@H](n2c(-c3c(F)cccc3OC(F)F)nc3ccc(-c4nc[nH]n4)cc32)[C@@H]1O
6.30 to 7.00

* * *

# Assayed target: BCAT2 (Homo sapiens)
# Method: BCAT2 cell inhibition using engineered A549 cells (MUT KO, BCAT1 KO; 13C6-KMV formation by LC-MS/MS)
# Type: cell-based
# Parameters: expressed endogenous BCAT2; endogenous in cells; host or cells: A549 cells, MUT knockout and BCAT1 knockout
pIC50: −log10 of the molar value.
Reported endpoint: pIC50

Here are 4 molecules together with their reported answers.
Molecule: CC(=O)N1C[C@H](NC(=O)c2cc(F)ccn2)C[C@H](n2c(-c3ccccc3F)nc3cnc(-c4nc(C)co4)cc32)C1 [Example 167]
pIC50: > 7.00

Molecule: O=C1c2cc(F)ccc2CN1[C@H]1CCC[C@@H](n2c(-c3ccccc3F)nc3cnc(-c4nc[nH]n4)cc32)C1 [Example 169]
pIC50: > 7.00

Molecule: O=C(N[C@H]1CCC[C@@H](n2c(-c3ccccc3F)nc3cnc(-c4nc[nH]n4)cc32)C1)c1c(F)cccc1F [Example 74]
pIC50: 6.30 to 7.00

Molecule: COCCOc1ccc(Cl)cc1C(=O)N[C@H]1CCC[C@@H](n2c(-c3ccccc3F)nc3cnc(-n4nccn4)cc32)C1 [Example 72]
pIC50: > 7.00

Please give measured pIC50 of the following entry: CO[C@@H]1C[C@H](NC(=O)c2cc(F)ccn2)C[C@H](n2c(-c3ccccc3F)nc3cnc(-c4nc[nH]n4)cc32)C1 [Example 114]
> 7.00

Please give measured pIC50 of the following entry: O=C1c2cc(Cl)ccc2OCN1[C@H]1CCC[C@@H](n2c(-c3ccccc3F)nc3cnc(-c4nc[nH]n4)cc32)[C@@H]1O [Example 213]
> 7.00

* * *

# Assayed target: BCAT2 (Homo sapiens, UniProt O15382)
# Method: BCAT2 in vitro enzyme inhibition assay (hBCAT2, glutamate dehydrogenase/diaphorase/resazurin coupled fluorescence read)
# Format: biochemical
# Assay context: hBCAT2, 1 h preincubation at 25° C., one hour reaction; average where tested multiple times
Reported endpoint: IC50

Solved cases (5 shown):
Mol smiles: COc1ccc(Cl)cc1C(=O)N[C@H]1CCCC[C@@H](n2c(-c3ccccc3F)nc3cnc(-c4nc[nH]n4)cc32)[C@@H]1O
Result: < 100 nM

Mol smiles: CN1C[C@@H](NC(=O)c2cc(F)ccn2)C[C@@H](n2c(-c3ccccc3OCCO)nc3ccc(-c4ncccn4)cc32)C1
Result: > 1000 nM

Mol smiles: N#Cc1ccccc1-c1nc2cnc(-c3nc[nH]n3)cc2n1[C@@H]1CCC[C@H](NC(=O)c2cc(F)ccc2F)C1
Result: < 100 nM

Mol smiles: COc1ccc(Cl)cc1C(=O)N[C@H]1C[C@@H](n2c(-c3ncccc3F)nc3cnc(-c4nc[nH]n4)cc32)CN(C)C1
Result: > 1000 nM

Mol smiles: CO[C@H]1C[C@H](NC(=O)c2cc(Cl)ccc2F)C[C@H](n2c(-c3ccccc3OCCO)nc3cnc(-c4ncco4)cc32)C1
Result: < 100 nM

Now take the following compound into account.
Answer with the recorded IC50 of O=C(N[C@H]1CCC[C@@H](n2c(-c3ccccc3F)nc3cnc(-c4nc[nH]n4)cc32)C1)c1cc(Cl)ccc1OCCN1CCCC1 only.
100 to 500 nM
